tested on: normal human fibroblasts (HDF); test: WST-1 cell viability assay, HDF; assay type: cell-based; settings: Homo sapiens, Fibroblast, 72 h exposure, concentration range 1–100 µM
Below, each entry is listed alongside its reported pIC50.
In textbook form, pIC50 equals minus log to base ten of the concentration in mol/L.

# Compound, pIC50
measured = [
    ("C#CCN1c2cccnc2Sc2cc(C)cnc21", 4.95),
    ("C=CCN1c2cccnc2Sc2cc(C)cnc21", 3.90),
]

So what does the record say about pIC50 for `Cc1cnc2c(c1)Sc1ncccc1N2C` ?
4.52

# iterate: `Cc1cnc2c(c1)Sc1ncccc1N2Cc1ccccc1`
3.18

Ok, now Cc1cnc2c(c1)Sc1ncccc1N2 [B6, 10H-3-methyl-1,6-diazaphenothiazine]
4.50

* * *

pIC50 reference
system: COLO829 melanotic melanoma cells; test: WST-1 cell viability assay, COLO829; type: cell-based; settings: Homo sapiens, COLO-829; COLO829, 48 h exposure, concentration range 1–100 µM
Reminder that pIC50 means the negative base-10 logarithm of the concentration expressed in mol/L.

# Compound, pIC50
records = [
    ("C=CCN1c2cccnc2Sc2cc(C)cnc21", 4.19),
    ("Cc1cnc2c(c1)Sc1ncccc1N2 [B6, 10H-3-methyl-1,6-diazaphenothiazine]", 4.23),
    ("Cc1cnc2c(c1)Sc1ncccc1N2Cc1ccccc1", 4.12),
    ("Cc1cnc2c(c1)Sc1ncccc1N2C", 4.19),
]

# query: pIC50 | item `C#CCN1c2cccnc2Sc2cc(C)cnc21` | system: COLO829 melanotic melanoma cells
4.21

* * *

The following compounds are shown together with reported pIC50 values.
system: A375 amelanotic melanoma cells; assay: WST-1 cell viability assay, A375; assay type: cell-based; settings: Homo sapiens, A-375; A375, 72 h exposure, concentration range 1–100 µM
// field semantics: pIC50 = negative decimal log of concentration (mol/L)

Field: example entries. Status: answers known.
# Compound, Experimental System, Measurement Name, Obs Value
measured = [
    ("C=CCN1c2cccnc2Sc2cc(C)cnc21", "A375 amelanotic melanoma cells", "pIC50", 4.04),
    ("Cc1cnc2c(c1)Sc1ncccc1N2 [B6, 10H-3-methyl-1,6-diazaphenothiazine]", "A375 amelanotic melanoma cells", "pIC50", 4.40),
    ("C#CCN1c2cccnc2Sc2cc(C)cnc21", "A375 amelanotic melanoma cells", "pIC50", 3.86),
    ("Cc1cnc2c(c1)Sc1ncccc1N2C", "A375 amelanotic melanoma cells", "pIC50", 4.75),
]

Now take the following compound into account.
Name the reported pIC50 value associated with the compound `Cc1cnc2c(c1)Sc1ncccc1N2Cc1ccccc1`
4.22

* * *

system: C32 amelanotic melanoma cells; experiment: WST-1 cell viability assay, C32; assay type: cell-based; settings: Homo sapiens; C32, 48 h exposure, concentration range 1–100 µM
pIC50: −log10 of the molar value.
Rule: T for pIC50 not less than 4, F for anything less.

# Compound, Label Class
rows = [
    ("C#CCN1c2cccnc2Sc2cc(C)cnc21 [B9]", "F"),
]

Next up:
Does Cc1cnc2c(c1)Sc1ncccc1N2 [B6, 10H-3-methyl-1,6-diazaphenothiazine] have a reported pIC50 of at least 4?
T

* * *

Tested on: C32 amelanotic melanoma cells
Experiment: WST-1 cell viability assay, C32
Type: cell-based
Details: Homo sapiens; C32, 48 h exposure, concentration range 1–100 µM
Method: Human A375, C32 amelanotic and COLO829, G361 melanotic melanoma cells, purchased from ATCC (ATCC Manassas, VA, USA), were incubated in a humidified 5% CO2 incubator at 37 °C. […] The analyzed compound solutions were obtained by diluting stock solutions in a culture medium. […] The viability of cells was assessed using the cell proliferation reagent WST-1. […] All the examined samples were calculated as percentages of the control.
Measurement Name: pIC50
In plain terms, pIC50 is the concentration in mol/L turned into minus its base-10 logarithm.

# Molecule Smiles, pIC50
measured = [
    ("Cc1cnc2c(c1)Sc1ncccc1N2Cc1ccccc1", 4.06),
]

Provide the documented pIC50 with C32 amelanotic melanoma cells as the system for `Cc1cnc2c(c1)Sc1ncccc1N2C`
4.05

Follow-up item: `C=CCN1c2cccnc2Sc2cc(C)cnc21`
3.98
